# Experimental Details: NCI Yeast Anticancer Drug Screen. Data for the cln2 rad14 strain (AID 165);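 also: 0% = growth equal to vehicle treated cultures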
# Condition Notes: S. cerevisiae cln2 rad14 strain, at 5.0 µM (retest, dose inferred, filed as 0.5), hits give high values
This is part of a sample that, as a whole, favours compounds with a hit. Of some 79,000 tested, about 15% had one in any assay.
Assay Endpoint: growth inhibition (%)
Entry rule: numbers only, all in %.

Inquiry: Return the recorded growth inhibition value; entry: O=C1NC(=O)N(c2ccc([N+](=O)[O-])cc2)C1=O
Reply text: 9

Inquiry: Specify growth inhibition for C#CCNCc1ccccc1 and stop.
Reply text: 0

Inquiry: Specify reported growth inhibition for the compound shown: CCOP(=O)(CCCOc1cc(Cl)c(Cl)cc1Cl)OCC
Reply text: 7

Inquiry: Look up growth inhibition of CCCCCCCCCCCCCC(=O)OCC(O)CO (configuration not stated) and report it.
Reply text: 7

Inquiry: Quick one: give measured growth inhibition for CCCCCCCCCN(CCCCCCCCC)CC(O)c1cc2c(c3ccccc13)CCCC2 (configuration not stated)
Reply text: 7

Inquiry: Quickly give me recorded growth inhibition for Nc1ccc(-c2nc3ccccc3s2)cc1Br
Reply text: 27

Inquiry: Provide only the value of recorded growth inhibition for O=C1c2c(O)ccc(O)c2C(=O)c2c(O)ccc(O)c21
Reply text: -10

Inquiry: Indicate the recorded growth inhibition value for this compound: COC(=O)c1ccccc1N=NN(C)CC1OC2OC(C)(C)OC2C1OC (configuration not stated)
Reply text: -3

Inquiry: For the compound CCCCCCCN=C(N)c1ccc(C(=O)OCc2ccccc2)cc1 , give its reported growth inhibition.
Reply text: -2

Inquiry: Specify measured growth inhibition for OC1(CCc2ccccc2)COC(C(F)(F)F)(C(F)(F)F)C1 (configuration not stated) .
Reply text: 1

Inquiry: Please supply the value of reported growth inhibition for the item COc1ccccc1NC(=O)CC(=O)N1N=C(C)C(N=Nc2ccc(C(=O)O)cc2)C1=O (configuration not stated)
Reply text: -2

Inquiry: Report measured growth inhibition; entry is CCC[CH2][Sn]([CH2]CCC)([O]C(=O)c1cc(F)cc(F)c1)[O]C(=O)c1cc(F)cc(F)c1
Reply text: 18

====

# Experimental Details: NCI Yeast Anticancer Drug Screen. Data for the mec2-1 strain (AID 157)
# Condition Notes: S. cerevisiae mec2-1 strain, at 50.0 µM, hits give high values
About 79,000 compounds went through this panel and 15% of them were active in at least one assay; those are over-represented in the sample as a whole.
Respond with true (1) for growth inhibition values of 80% and above, false (0) for values below.

Inquiry: State whether the measured growth inhibition reaches 80%, counting equality as reaching it, for O=[N+]([O-])c1ccc(N=Nc2ccc(O)cc2O)cc1
Reply text: true (1)

Inquiry: Please check the record O=[N+]([O-])c1ccc(C2=CSc3ccccc3N2)cc1 and state if its growth inhibition is at or above 80%.
Reply text: false (0)

Inquiry: Does the reported growth inhibition for CC(C)CC(CC(C)C)OP(=O)(O)OC(CC(C)C)CC(C)C fall at or above the 80% mark?
Reply text: true (1)

Inquiry: # bool: growth inhibition of Cc1nc(N2N=C(c3ccc(Cl)cc3)CCC2=O)sc1[N+](=O)[O-] >= 80%
Reply text: true (1)

Inquiry: I'd appreciate it if you could say whether N#CSCCSC#N has growth inhibition at least equal to 80%.
Reply text: true (1)

Inquiry: Could you tell me if the measured growth inhibition of Oc1c(I)cc(Cl)c2cccnc12 reaches 80% or more?
Reply text: true (1)

Inquiry: Does the compound CC(/C=C/c1cccs1)=N\C(=S)NC(N)=S have recorded growth inhibition that is 80% or more?
Reply text: false (0)

Inquiry: Hi, just wondering whether CC(C)SCC1CO1 (configuration not stated) shows growth inhibition of 80% or higher.
Reply text: false (0)

Inquiry: growth inhibition >= 80% for Cc1ccc(O)c(C(c2cccc(C(c3cc(C)ccc3O)c3cc(C)ccc3O)c2)c2cc(C)ccc2O)c1 ?
Reply text: true (1)

Inquiry: Determine whether this compound has growth inhibition no lower than 80%: CCCCCC=C(c1cc(Br)cc(C(=O)O)c1O)c1cc(Br)cc(C(=O)O)c1O
Reply text: true (1)

Inquiry: growth inhibition >= 80% for Cc1cccc(C[P+](c2ccccc2)(c2ccccc2)c2ccccc2)c1 ?
Reply text: true (1)

Inquiry: Exam item: decide whether the reported growth inhibition for CC(C)CCCC(C)[C@H]1CCC(C2C[C@@H](O)[C@@H]3CC(O)[C@@H](O)C[C@]3(CO)C2=O)[C@]1(C)CCO (some centres not stated) is at least 80%.
Reply text: true (1)
